testTarget: testosterone (T) production in NCI-H295R cells (Homo sapiens, UniProt P05108)
Construct: testosterone measured by LC-MS/MS as downstream steroid
assay: H295R Steroid Biosynthesis Inhibition Assay - inhibition of testosterone (T) production in NCI-H295R cells
recordedConditions: 48 h, LC-MS/MS, read-out: Inh. of T IC50
quantity: IC50

OC1CCN(c2ccc3cc(CN4Cc5ccccc5C4)ccc3n2)CC1 [Compound 74]: ≥ 101 nM
O=c1cc(CN2Cc3ccccc3C2)oc2cc([C@H]3CC[C@H](O)CC3)oc12 [Compound 29]: ≤ 40 nM
CS(=O)(=O)N1CCC(n2cc3ccc(CN4Cc5ccccc5C4)cc3n2)CC1 [Compound 131]: ≤ 40 nM
O=c1cc(CN2CCn3cccc3C2)oc2cc([C@H]3CC[C@H](O)CC3)oc12 [Compound 54]: 41 to 100 nM
CS(=O)(=O)N1CCC(c2cc3cc(CN4Cc5ccccc5C4)ccc3o2)CC1 [Compound 126]: ≤ 40 nM

Look up IC50 for this molecule: CS(=O)(=O)N1CCC(c2ccc3cc(CN4Cc5ccccc5C4)ncc3c2)CC1 [Compound 68] ≤ 40 nM

Look up IC50 for this molecule: O=C(c1ccccc1)N1CCC(c2cnc3cc(CN4Cc5ccccc5C4)ccc3n2)CC1 [Compound 104] ≥ 101 nM

Look up IC50 for this molecule: CS(=O)(=O)N1CCC(c2ccc3cc(CN4Cc5ccc(F)cc5C4)ccc3n2)CC1 [Compound 72] ≤ 40 nM

###

testTarget: CYP11A1 (Homo sapiens, UniProt P05108)
Construct: measuring the cellular production of pregnenolone (P) catalyzed by CYP11A1
Sequence (P05108 40-521): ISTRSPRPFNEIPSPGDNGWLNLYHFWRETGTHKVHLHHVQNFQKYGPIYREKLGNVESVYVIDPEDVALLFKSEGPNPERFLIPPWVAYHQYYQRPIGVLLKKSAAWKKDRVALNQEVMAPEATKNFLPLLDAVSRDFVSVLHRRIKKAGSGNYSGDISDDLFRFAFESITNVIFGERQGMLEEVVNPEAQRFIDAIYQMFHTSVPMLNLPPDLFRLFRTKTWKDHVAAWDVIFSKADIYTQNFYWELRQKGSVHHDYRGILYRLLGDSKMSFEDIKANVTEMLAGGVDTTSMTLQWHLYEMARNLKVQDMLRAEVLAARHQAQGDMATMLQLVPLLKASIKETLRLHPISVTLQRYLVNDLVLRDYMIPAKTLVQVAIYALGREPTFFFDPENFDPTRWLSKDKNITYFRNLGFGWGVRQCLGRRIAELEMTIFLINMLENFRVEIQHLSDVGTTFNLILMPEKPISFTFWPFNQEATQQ
assay: H295R Steroid Biosynthesis Inhibition Assay - inhibition of pregnenolone (P) production catalyzed by CYP11A1 in NCI-H295R cells
recordedConditions: 48 h, LC-MS/MS, read-out: Inh. of P IC50
Listed molecules paired with reported IC50

CS(=O)(=O)N1CCC(COc2coc(CN3CCc4sccc4C3)cc2=O)CC1: ≥ 100 nM
CS(=O)(=O)N1CCC(c2ccc3nc(CN4Cc5ccccc5C4)ccc3n2)CC1: ≤ 40 nM
O=c1cc(CN2Cc3ccccc3C2)oc2cc([C@@H]3CCC[C@@H](O)CC3)oc12 (racemic): ≤ 40 nM
CCCS(=O)(=O)N1CCC(c2cnc3cc(CN4Cc5ccccc5C4)ccc3n2)CC1: ≤ 40 nM
CS(=O)(=O)N1CCC(c2ccc3oc(CN4Cc5ccccc5C4)cc(=O)c3n2)CC1: ≤ 40 nM
O=c1cc(CN2Cc3ccccc3C2)occ1OC[C@H]1CC[C@H](O)CC1: ≤ 40 nM
O=c1cc(CN2Cc3ccccc3C2)oc2cc(C3CCC(F)(F)CC3)oc12: 40 to 100 nM
O=c1cc(CN2Cc3ccccc3C2)oc2cc([C@@H]3CCC[C@@H](O)C3)oc12: 40 to 100 nM

Now for another entry.
Look up IC50 for this molecule: Cc1oc(CN2Cc3ccccc3C2)cc(=O)c1OCC1CCN(S(C)(=O)=O)CC1 ≤ 40 nM

###

Listed compounds paired with reported IC50
testTarget: testosterone (T) production in NCI-H295R cells (Homo sapiens, UniProt P05108)
Construct: testosterone measured by LC-MS/MS as downstream steroid
assay: H295R Steroid Biosynthesis Inhibition Assay - inhibition of testosterone (T) production in NCI-H295R cells
recordedConditions: 48 h, LC-MS/MS, read-out: Inh. of T IC50

Consider the worked cases shown below.
CC(C)OC(=O)N1CCC(c2cnc3cc(CN4Cc5ccccc5C4)ccc3n2)CC1 [Compound 112]: 41 to 100 nM
COC(=O)N[C@H]1CC[C@H](c2cc3oc(CN4Cc5ccccc5C4)cc(=O)c3o2)CC1 [Compound 45]: ≤ 40 nM
COC(=O)N1CCC(c2cc3oc(CN4Cc5ccccc5C4)cc(=O)c3o2)CC1 [Compound 15]: ≤ 40 nM
CN(C)S(=O)(=O)N1CCC(c2cnc3cc(CN4Cc5ccccc5C4)ccc3n2)CC1 [Compound 99]: 41 to 100 nM
CS(=O)(=O)N1CCC(COc2coc(CN3CCn4c(Cl)ccc4C3)cc2=O)CC1 [Compound 4]: 41 to 100 nM
COc1ccc2c(c1)CN(Cc1cc(=O)c3oc(C4CCN(S(C)(=O)=O)CC4)cc3o1)C2 [Compound 19]: ≤ 40 nM
CO[C@H]1CC[C@H](c2cc3oc(CN4Cc5ccccc5C4)cc(=O)c3o2)CC1 [Compound 38]: ≤ 40 nM
CS(=O)(=O)N1CCC(c2cc(=O)c3cc(CN4Cc5ccccc5C4)ccc3o2)CC1 [Compound 60]: ≤ 40 nM
CS(=O)(=O)N1CCC(COc2ccc(CN3Cc4ccccc4C3)c3ccccc23)CC1 [Compound 7]: ≤ 40 nM
CCCS(=O)(=O)N1CCC(c2cnc3cc(CN4Cc5ccccc5C4)ccc3n2)CC1 [Compound 92]: ≤ 40 nM

Look up IC50 for this compound: O=c1cc(CN2Cc3ccccc3C2)oc2cc(C3CC4(CC(O)C4)C3)oc12 (stereo not drawn) [Compound 24] ≤ 40 nM

Look up IC50 for this compound: CC(=O)N1CCC(c2cnc3cc(CN4Cc5ccccc5C4)ccc3n2)CC1 [Compound 101] ≥ 101 nM

Look up IC50 for this compound: O=c1cc(CN2Cc3ccccc3C2)oc2cc(C34CCC(O)(CC3)CC4)oc12 [Compound 34] ≤ 40 nM

###

testTarget: testosterone (T) production in NCI-H295R cells (Homo sapiens)
Construct: testosterone measured by LC-MS/MS as downstream steroid
assay: H295R Steroid Biosynthesis Inhibition Assay - inhibition of testosterone (T) production in NCI-H295R cells
recordedConditions: 48 h, LC-MS/MS, read-out: Inh. of T IC50
pIC50: −log10 of the molar value.
Listed compounds paired with reported pIC50

Consider the worked cases shown below.
CC(C)(C)NC(=O)N1CCC(c2cnc3cc(CN4Cc5ccccc5C4)ccc3n2)CC1: 7.00 to 7.39
CS(=O)(=O)N1CC=C(c2ccc3nc(CN4Cc5ccccc5C4)cnc3c2)CC1: 7.00 to 7.39
Cc1ccc2c(c1)CN(Cc1cc(=O)c3oc(C4CCN(S(C)(=O)=O)CC4)cc3o1)C2: ≥ 7.40

Identify the measured pIC50 of COc1nc(C2CCN(S(C)(=O)=O)CC2)nc2ccc(CN3Cc4ccccc4C3)cc12 for testosterone (T) production in NCI-H295R cells (Homo sapiens). ≥ 7.40

Identify the measured pIC50 of O=c1cc(CN2Cc3ccccc3C2)oc2cc([C@@H]3CC[C@@H](O)[C@@H](F)C3)oc12 for testosterone (T) production in NCI-H295R cells (Homo sapiens). ≥ 7.40

Identify the measured pIC50 of CS(=O)(=O)N1CCC(COc2ccc(CN3CCc4ccccc4C3)c3cccnc23)CC1 for testosterone (T) production in NCI-H295R cells (Homo sapiens). ≥ 7.40

Identify the measured pIC50 of CS(=O)(=O)N1CCC(N2CCc3cc(CN4Cc5ccccc5C4)ccc3C2=O)CC1 for testosterone (T) production in NCI-H295R cells (Homo sapiens). 7.00 to 7.39

Identify the measured pIC50 of O=C(OC1CCCC1)N1CCC(c2cnc3cc(CN4Cc5ccccc5C4)ccc3n2)CC1 for testosterone (T) production in NCI-H295R cells (Homo sapiens). ≥ 7.40

Identify the measured pIC50 of CS(=O)(=O)c1ccc(-c2cc3oc(CN4Cc5ccccc5C4)cc(=O)c3o2)cc1 for testosterone (T) production in NCI-H295R cells (Homo sapiens). ≥ 7.40

Identify the measured pIC50 of CS(=O)(=O)N1CCC(c2ccc3nc(CN4Cc5ccccc5C4)cc(=O)n3c2)CC1 for testosterone (T) production in NCI-H295R cells (Homo sapiens). ≥ 7.40

Identify the measured pIC50 of CS(=O)(=O)N1CCC(c2cc(=O)c3nc(CN4Cc5ccccc5C4)ccc3o2)CC1 for testosterone (T) production in NCI-H295R cells (Homo sapiens). ≤ 7.00

Identify the measured pIC50 of Cn1c(C2CCN(S(C)(=O)=O)CC2)nc2ccc(CN3Cc4ccccc4C3)cc2c1=O for testosterone (T) production in NCI-H295R cells (Homo sapiens). ≥ 7.40

Identify the measured pIC50 of CS(=O)(=O)N1CCC(c2cc3oc(CN4CCc5ccccc5C4)cc(=O)c3o2)CC1 for testosterone (T) production in NCI-H295R cells (Homo sapiens). ≤ 7.00

Identify the measured pIC50 of CS(=O)(=O)N1CCC(COc2coc(CN3CCn4cccc4C3)cc2=O)CC1 for testosterone (T) production in NCI-H295R cells (Homo sapiens). 7.00 to 7.39

###

Listed molecules paired with reported pIC50
testTarget: CYP11A1 (Homo sapiens, UniProt P05108)
Construct: measuring the cellular production of pregnenolone (P) catalyzed by CYP11A1
assay: H295R Steroid Biosynthesis Inhibition Assay - inhibition of pregnenolone (P) production catalyzed by CYP11A1 in NCI-H295R cells
recordedConditions: 48 h, LC-MS/MS, read-out: Inh. of P IC50
pIC50: −log10 of the molar value.

Consider the worked cases shown below.
O=c1cc(CN2Cc3ccccc3C2)oc2cc([C@H]3CC[C@H](O)CC3)oc12: ≥ 7.40
CC(c1ccc(OCC2CCN(S(C)(=O)=O)CC2)c2ncccc12)N1Cc2ccccc2C1 (stereo not shown): ≥ 7.40
OC1CCN(c2ccc3cc(CN4Cc5ccccc5C4)ccc3n2)CC1: ≤ 7.00
CS(=O)(=O)Nc1ccc(-c2cc3oc(CN4Cc5ccccc5C4)cc(=O)c3o2)cc1: ≥ 7.40
CN(C)C(=O)N1CCC(c2cnc3cc(CN4Cc5ccccc5C4)ccc3n2)CC1: ≥ 7.40

Identify the measured pIC50 of CS(=O)(=O)N1CCC(c2cc3cc(CN4Cc5ccccc5C4)ccc3o2)CC1 for CYP11A1 (Homo sapiens, UniProt P05108). ≥ 7.40

Identify the measured pIC50 of CS(=O)(=O)N1C[C@@H]2[C@H](C1)[C@H]2c1cc2oc(CN3CCn4cccc4C3)cc(=O)c2o1 for CYP11A1 (Homo sapiens, UniProt P05108). 7.00 to 7.40
